Each entry below carries its recorded TGI.
Test system: OVCAR-5 ovarian
Experiment: NCI tumour cell line growth inhibition, 48 h
Observable: TGI

[[record]]
compound = "COc1ccc(C(C)c2cc(OC)c(OC)c(OC)c2)cc1 (stereo not given)"
result = "> 50 µM"

[[record]]
compound = "CCOC(=O)C1C=C2O[C@@H]3OC4(CCCCC4)O[C@@H]3C2C2C(=O)CCC(=O)[C@@]12C(=O)OC (stereo not given in full)"
result = "> 100 µM"

[[record]]
compound = "c1ccc2c(c1)nc1n2CSCC1"
result = "> 100 µM"

[[record]]
compound = "CC(=O)NC1C(OC(C)C(=O)NC(C(=O)NC(CCC(=O)NCCCNC2c3ccccc3Nc3cccc([N+](=O)[O-])c32)C(N)=O)C(C)C)C(O)C(CO)OC1(C)OCc1ccccc1 (stereo not given)"
result = "9.44 µM"

[[record]]
compound = "O=C(O)C1CC=CCC1C(=O)Nc1cccc(O)c1 (stereo not given)"
result = "> 100 µM"

[[record]]
compound = "COC(=O)c1c(C)[nH]c2c1C(=O)C(=O)c1nc(C)c(C)nc1-2"
result = "27.6 µM"

[[record]]
compound = "COc1ccc(C2C(C#N)=C(S)N(C3OC(COC(C)=O)C(OC(C)=O)C(OC(C)=O)C3OC(C)=O)C(C)=C2C(C)=O)cc1 (stereo not given)"
result = "> 100 µM"

[[record]]
compound = "CC[C@@]1(OC(=O)CN(C)C)C(=O)OCc2c1cc1n(c2=O)Cc2cc3c(N)cccc3nc2-1"
result = "> 100 µM"

[[record]]
compound = "CCO/S(=N/S(=O)(=O)c1ccccc1)c1ccccc1[N+](=O)[O-] (stereo not given)"
result = "> 100 µM"

[[record]]
compound = "O=C1CC(c2c(-c3ccccc3)[nH]c3ccccc23)C(=O)N1c1ccccc1 (stereo not given)"
result = "> 100 µM"

[[record]]
compound = "Cc1ccc(S(=O)(=O)N/N=C(\\c2nc3ccc([N+](=O)[O-])cc3[nH]c2=O)C(O)c2ccc([N+](=O)[O-])cc2)cc1 (stereo not given)"
result = "> 100 µM"

[[record]]
compound = "O=C1CCCC/C1=C1/SC(=Nc2ccccc2)C(=Nc2ccccc2)N1c1ccccc1"
result = "> 100 µM"

[[record]]
compound = "COc1cc2oc(=O)cc(C)c2c(OC)c1O"
result = "> 100 µM"

[[record]]
compound = "O=C1NC(N2CCCC(CO)C2)=N/C1=C\\c1ccccc1 (stereo not given)"
result = "> 100 µM"

[[record]]
compound = "C[C@@H]1[C@H](O)CC2=C(CC[C@@H](O)C2(C)C)[C@@]1(CO)CCc1ccoc1"
result = "> 50 µM"

[[record]]
compound = "Cn1c(=O)nc2n(-c3ccc(Cl)cc3)c(-c3ccccc3)c(-c3ccccc3)nc-2c1=O"
result = "> 100 µM"

[[record]]
compound = "COc1ccc2c3c([nH]c(=O)c2c1C(=O)O)-c1ccccc1CC3"
result = "> 100 µM"

[[record]]
compound = "CC(=O)Oc1ccc2c(c1)[C@@]1(C)CCCC(C)(C)[C@@H]1CC2"
result = "40.5 µM"

[[record]]
compound = "COCCOCCOCc1n(Cc2ccc3ccccc3c2)c2ccccc2[n+]1Cc1ccc2ccccc2c1"
result = "2.26 µM"

[[record]]
compound = "Cc1csc(NNC(N)=O)n1"
result = "> 100 µM"

